- protocol.description: MTT cytotoxicity assay, normal Vero cells
- Type: cell-based
- condition.summary: African green monkey, normal Vero cells; Vero; MTT; 0.312 uM
Entries and their viability at 0.312 µM values follow.
Express your answer in %, writing the number without its unit.

Worked examples, 2 molecules total:
molecule: CN(Cc1cnc2nc(N)nc(N)c2n1)c1ccc(C(=O)N[C@@H](CCC(=O)O)C(=O)O)cc1 [Methotrexate, reference compound]
viability at 0.312 µM, %: 99.7

molecule: CCn1c(N)c(/N=C(/CBr)c2ccc(OC)cc2)c(=O)[nH]c1=O
viability at 0.312 µM, %: 99.8

input: Name the recorded viability at 0.312 µM for "Nc1c(/N=C(/CBr)c2ccccc2)c(=O)[nH]c(=O)n1Cc1ccccc1" .
output: 100

input: viability at 0.312 µM lookup needed for "Cn1c(SCC(=O)c2ccccc2)nc(=O)c(/N=C(/CBr)c2ccccc2)c1N" , thanks.
output: 99.6

input: Item "COc1ccc(/C(CBr)=N\c2c(N)n(Cc3ccccc3Cl)c(=O)[nH]c2=O)cc1" has what recorded viability at 0.312 µM?
output: 99.1

###

- target.of.assay: BRD4 (BD2) (Homo sapiens, UniProt O60885)
- Construct: BRD4 (BD2) should be thawed on ice; purchased
- protocol.description: BRD4 inhibitory activity assay (AlphaLISA Bromodomain Assay);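 further: in vitro inhibition of recombinant BRD4 BD2 bromodomain binding to a BET bromodomain ligand, read by AlphaLISA proximity signal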
- Format: binding
- condition.summary: BRD4 Lab Report; conc 0.01 (unit not given)
parameter: %inh (%)
Your answer should be a plain number; it is taken to be in %.

Consider the worked cases shown below.
structure: Nc1c(/N=C(/CBr)c2ccccc2)c(=O)[nH]c(=O)n1Cc1ccccc1
%inh (%): 41

structure: COc1ccc(/C(CBr)=N\c2c(N)n(Cc3ccccc3Cl)c(=O)[nH]c2=O)cc1
%inh (%): 30

structure: Cn1c(SCC(=O)c2ccccc2)nc(=O)c(/N=C(/CBr)c2ccccc2)c1N
%inh (%): 38

Please look at the following compound next.
input: Can you share its %inh? I mean this compound: "CCn1c(N)c(/N=C(/CBr)c2ccc(OC)cc2)c(=O)[nH]c1=O"
output: 34

###

- Tested on: HT-29 colorectal adenocarcinoma cells
- protocol.description: MTT cytotoxicity assay, HT-29
- Format: cell-based
- condition.summary: HT29; MTT; 1.25 uM
parameter: Toxicity % (%)
Please respond with the number in % and leave the unit unwritten.

// known answers, use as guide
compound: COc1ccc(/C(CBr)=N\c2c(N)n(Cc3ccccc3Cl)c(=O)[nH]c2=O)cc1
Toxicity % / %: 95.82
--
compound: CN(Cc1cnc2nc(N)nc(N)c2n1)c1ccc(C(=O)N[C@@H](CCC(=O)O)C(=O)O)cc1 [Methotrexate, reference compound]
Toxicity % / %: 66.94
--
compound: Nc1c(/N=C(/CBr)c2ccc([N+](=O)[O-])cc2)c(=O)[nH]c(=O)n1Cc1ccccc1
Toxicity % / %: 6.891
--
compound: Cn1c(SCC(=O)c2ccccc2)nc(=O)c(/N=C(/CBr)c2ccccc2)c1N
Toxicity % / %: 86.39
--
compound: Cn1c(=S)[nH]c(=O)c2nc(-c3ccccc3)c(-c3ccccc3)nc21
Toxicity % / %: 2.239

input: Can you look up the measured Toxicity % of "COc1ccc(-c2cnc3c(n2)c(=O)[nH]c(=O)n3Cc2ccccc2)cc1" for me?
output: 0.08613

input: Entry "Cn1c(SCC(=O)c2ccc([N+](=O)[O-])cc2)nc(=O)c(/N=C(/CBr)c2ccc([N+](=O)[O-])cc2)c1N" has what Toxicity %?
output: 0.5599

input: Quick one: Toxicity % for "Nc1c(/N=C(/CBr)c2ccccc2)c(=O)[nH]c(=O)n1Cc1ccccc1" ?
output: 92.12

input: Recorded Toxicity % of "Nc1c(/N=C(/CBr)c2ccc([N+](=O)[O-])cc2)c(=O)[nH]c(=O)n1Cc1ccccc1Cl" , please.
output: 6.417

input: What does the record list as Toxicity % for "CCn1c(N)c(/N=C(/CBr)c2ccc(OC)cc2)c(=O)[nH]c1=O" ?
output: 26.57

input: Which Toxicity % is reported for this compound? "CCn1c(N)c(/N=C(/CBr)c2ccc([N+](=O)[O-])cc2)c(=O)[nH]c1=O"
output: 5.556

###

Known pIC50 of a selection of compounds
- Tested on: U-937 renal cancer cells
- protocol.description: MTT cytotoxicity assay, U-937;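 further: Six-dose MTT colorimetric assay on cell monolayers, formazan absorbance read at 560 nm with 620 nm background removed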
- Assay type: cell-based
- condition.summary: Homo sapiens, U-937; MTT; mean of three independent experiments ± SD; read-out: IC50 Value U-937
Note on pIC50: it is the negative log10 of concentration, concentration in mol/L.

Worked cases, answers included:
compound: CCn1c(N)c(/N=C(/CBr)c2ccc([N+](=O)[O-])cc2)c(=O)[nH]c1=O [Compound 5a]
pIC50: 5.22
//
compound: Cn1c(=S)[nH]c(=O)c2nc(-c3ccccc3)c(-c3ccccc3)nc21 [Compound 10]
pIC50: 5.08
//
compound: COc1ccc(/C(CBr)=N\c2c(N)n(Cc3ccccc3Cl)c(=O)[nH]c2=O)cc1 [Compound 6b]
pIC50: 5.95

input: I have this compound here, Nc1c(/N=C(/CBr)c2ccc([N+](=O)[O-])cc2)c(=O)[nH]c(=O)n1Cc1ccccc1Cl [Compound 5c] , and I need its recorded pIC50.
output: 5.21

###

Here, each record is paired with measured viability at 1.25 µM data.
- Test system: MDA-MB-231 breast cancer cells
- protocol.description: MTT cytotoxicity assay, MDA-MB-231
- Assay type: cell-based
- condition.summary: Homo sapiens; MDA-MB-231; MTT; 1.25 uM
- Experimental: All newly synthetic compounds were tested for cytotoxicity using a six-dose MTT colorimetric assay on three cancer cell lines; namely, breast cancer cells (MDA-MB-231), colorectal adenocarcinoma cells (HT-29) and renal cancer cells (U-937). […] However, renal cancer cells (U-937) were discovered to be the least sensitive. […] The cell lines were supplied by ATCC (American Type Culture Collection). […] The optical density was measured at 560 nm, and the background was subtracted at 620 nm. […]
Supply the numeric figure in %, leaving out any unit text.

Consider the following illustrative entries.
molecule: COc1ccc(/C(CBr)=N\c2c(N)n(Cc3ccccc3Cl)c(=O)[nH]c2=O)cc1 [Compound 6b]
target.of.assay: MDA-MB-231 breast cancer cells
value.unit: %
experimental.value: 10.2
--
molecule: CCn1c(N)c(/N=C(/CBr)c2ccc([N+](=O)[O-])cc2)c(=O)[nH]c1=O [Compound 5a]
target.of.assay: MDA-MB-231 breast cancer cells
value.unit: %
experimental.value: 91.2

input: Would you kindly share the measured viability at 1.25 µM for Cn1c(SCC(=O)c2ccc([N+](=O)[O-])cc2)nc(=O)c(/N=C(/CBr)c2ccc([N+](=O)[O-])cc2)c1N [Compound 8] ?
output: 83.8

###

- Tested on: MDA-MB-231 breast cancer cells
- protocol.description: MTT cytotoxicity assay, MDA-MB-231
- Assay type: cell-based
- condition.summary: Homo sapiens; supplement viability lab report, MDA-MB-231; read-out: IC50 ± SD
parameter: pIC50
The quantity pIC50 is defined as the negative base-10 logarithm of the molar concentration.

structure: COc1ccc(/C(CBr)=N\c2c(N)n(Cc3ccccc3Cl)c(=O)[nH]c2=O)cc1
experimental.value: 6.20

Could you now consider this next compound?
input: Which pIC50 is listed for "CCn1c(N)c(/N=C(/CBr)c2ccc(OC)cc2)c(=O)[nH]c1=O" ?
output: 6.00

###

- protocol.description: MTT cytotoxicity assay, normal Vero cells;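 further: monolayers exposed to two-fold dilutions in 2% serum medium, MTT added for 4 h, formazan in DMSO read at 560 nm minus 620 nm, controls given medium alone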
- Format: cell-based
- condition.summary: African green monkey, normal Vero cells; Vero; MTT; 0.625 uM
parameter: viability at 0.625 µM (%)
# number only, unit % dropped from output

# example entries with known answers
compound: CN(Cc1cnc2nc(N)nc(N)c2n1)c1ccc(C(=O)N[C@@H](CCC(=O)O)C(=O)O)cc1 [Methotrexate, reference compound]
viability at 0.625 µM, %: 100
--
compound: CCn1c(N)c(/N=C(/CBr)c2ccc(OC)cc2)c(=O)[nH]c1=O
viability at 0.625 µM, %: 99.2
--
compound: Nc1c(/N=C(/CBr)c2ccccc2)c(=O)[nH]c(=O)n1Cc1ccccc1
viability at 0.625 µM, %: 92.9

input: Given the compound "COc1ccc(/C(CBr)=N\c2c(N)n(Cc3ccccc3Cl)c(=O)[nH]c2=O)cc1" , what is its reported viability at 0.625 µM?
output: 99.1

input: Look up viability at 0.625 µM for this compound: "Cn1c(SCC(=O)c2ccccc2)nc(=O)c(/N=C(/CBr)c2ccccc2)c1N"
output: 99.8

###

- System: MDA-MB-231 breast cancer cells
- protocol.description: MTT cytotoxicity assay, MDA-MB-231
- Format: cell-based
- condition.summary: Homo sapiens; MDA-MB-231; MTT; 1.25 uM
- Description: All newly synthetic compounds were tested for cytotoxicity using a six-dose MTT colorimetric assay on three cancer cell lines; namely, breast cancer cells (MDA-MB-231), colorectal adenocarcinoma cells (HT-29) and renal cancer cells (U-937). […] However, renal cancer cells (U-937) were discovered to be the least sensitive. […] The cell lines were supplied by ATCC (American Type Culture Collection). […] The optical density was measured at 560 nm, and the background was subtracted at 620 nm. […]
Listed below: viability at 1.25 µM values for each entry.
Form entry: value (%) — number only.

The examples below pair each entry with its known result.
molecule: CN(Cc1cnc2nc(N)nc(N)c2n1)c1ccc(C(=O)N[C@@H](CCC(=O)O)C(=O)O)cc1 [Methotrexate, reference compound]
value.unit: %
viability at 1.25 µM: 81.5
--
molecule: Nc1c(/N=C(/CBr)c2ccc([N+](=O)[O-])cc2)c(=O)[nH]c(=O)n1Cc1ccccc1
value.unit: %
viability at 1.25 µM: 84.7
--
molecule: Nc1c(/N=C(/CBr)c2ccc([N+](=O)[O-])cc2)c(=O)[nH]c(=O)n1Cc1ccccc1Cl
value.unit: %
viability at 1.25 µM: 96.1
--
molecule: Nc1c(/N=C(/CBr)c2ccccc2)c(=O)[nH]c(=O)n1Cc1ccccc1
value.unit: %
viability at 1.25 µM: 7.14
--
molecule: Cn1c(=S)[nH]c(=O)c2nc(-c3ccccc3)c(-c3ccccc3)nc21
value.unit: %
viability at 1.25 µM: 98.8

input: Recorded viability at 1.25 µM of "Cn1c(SCC(=O)c2ccccc2)nc(=O)c(/N=C(/CBr)c2ccccc2)c1N" , please.
output: 16.5

input: Return reported viability at 1.25 µM; argument: "COc1ccc(-c2cnc3c(n2)c(=O)[nH]c(=O)n3Cc2ccccc2)cc1"
output: 86.2

input: Tell me the measured viability at 1.25 µM of "CCn1c(N)c(/N=C(/CBr)c2ccc(OC)cc2)c(=O)[nH]c1=O" , please.
output: 27.1
